Target: T1, Rok-C114-185 T156A (Bacillus subtilis subsp. subtilis str. …, UniProt O34857 114-185, T156A)
T1 sequence: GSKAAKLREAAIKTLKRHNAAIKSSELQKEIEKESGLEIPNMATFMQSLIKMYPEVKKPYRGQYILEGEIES
Test: ITC; ITC: sodium phosphate buffer, 200 mM NaCl, pH 6, 277 K, 50 uM protein in cell, 750 uM Seq1 DNA; NMR samples: 50 mM sodium phosphate, 50 mM NaCl, pH 6.0
Details: protein: recombinant; tags: C-terminal His6; blunt, self-complementary 18 bp

BINDER: Seq1 (dsDNA) DNA 1: CTAATAACTAGTTATTAG DNA 2: CTAATAACTAGTTATTAG
Kd (µM): 42.9
